Just for reference, patent US20060069132A1 is where these values come from.

Tested on: ducksalad
Test: Test B flooded paddy test
Type: in vivo, Heteranthera limosa
Conditions: 1000 g ai/ha, scale 0 to 100 (0 no effect, 100 complete control)
Procedure: At the same time, plants selected from these crop and weed species and also blackgrass (Alopecurus myosuroides Huds.), wheat (Triticum aestivum L.) and wild oat (Avena fatua L.) were treated with postemergence applications of test chemicals formulated in the same manner. […] Treated plants and controls were maintained in a greenhouse for 13 to 15 days, after which time all species were compared to controls and visually evaluated. […]
Give Ducksalad plant response rating for every item shown.

Some solved cases for reference:
[[record]]
compound = "CCn1nc(C(C)(C)C)cc1C(=O)Nc1cccc(OC(F)(F)F)c1 [Compound 272]"
property_label = "Ducksalad plant response rating"
meas_value = 80

[[record]]
compound = "Cc1nn(C(C)(C)C)nc1C(=O)Nc1cncc(C(=O)N(C)C)c1 [Compound 426]"
property_label = "Ducksalad plant response rating"
meas_value = 70

[[record]]
compound = "CCc1nn(C2CCCC2)nc1C(=O)Nc1cccc(C(=O)N(C)C)c1 [Compound 355]"
property_label = "Ducksalad plant response rating"
meas_value = 70

[[record]]
compound = "CCn1nc(C(C)(C)C)cc1C(=O)Nc1nc(C(=O)N(C)C)ccc1F [Compound 277]"
property_label = "Ducksalad plant response rating"
meas_value = 0


Lab note: each compound below needs its Ducksalad plant response rating filled in.
1. CCn1nc(C(C)(C)C)cc1C(=O)Nc1cccc(C(=O)N2CC=CC2)c1 [Compound 286]
2. CCNC(=O)c1cccc(NC(=O)c2cc(C(C)(C)C)n[nH]2)c1 [Compound 351]
3. C#CCNC(=O)c1cccc(NC(=O)c2nn(C(C)C)nc2CC)c1 [Compound 379]
4. C=CCOc1cccc(NC(=O)c2cc(C(C)(C)C)nn2CC)c1 [Compound 412]

[90, 0, 70, 80]
